Biological target: HLA-B*35:01_… (HLA-PEPTIDE target G5), recombinant soluble complex (human, UniProt P01889 25-297 at identity 0.94); P61769 21-119, enzymatically biotinylated (BirA) for screening and functional assays)
Experiment: scFv PPE ELISA
Parameter: fold binding to target pHLA over minipool of negative control pHLAs. Scope: all listed entries.

- binder: "scFv G5-P3G08 (scFv, V domains shown) VH: QVQLVQSGAEVKKPGASVKVSCKASGYIFRNYPMHWVRQAPGQGLEWMGWINPDSGGTKYAQKFQGRVTMTRDTSTSTVYMELSSLRSEDTAVYYCARDNGVGVDYWGQGTLVTVSS VL: DIQMTQSPSSLSASVGDRVTITCRASQGISNYLAWYQQKPGKAPKLLIYAASSLQSGVPSRFSGSGSGTDFTLTISSLQPEDFATYYCQQSYITPYTFGQGTKLEIK"
  reported.result: "≥ 3 fold"
- binder: "scFv G5-P1B12 (scFv, V domains shown) VH: EVQLLESGGGLVQPGGSLRLSCAASGFTFSNSDMNWVRQAPGKGLEWVASISSSGGYINYADSVKGRFTISRDNSKNTLYLQMNSLRAEDTAVYYCAKVNWNDGPYFDYWGQGTLVTVSS VL: DIQMTQSPSSLSASVGDRVTITCRASQSISSWLAWYQQKPGKAPKLLIYAASSLQSGVPSRFSGSGSGTDFTLTISSLQPEDFATYYCQQANSFPLTFGGGTKVEIK"
  reported.result: "≥ 3 fold"

Now examine the next entry.
Which fold binding to target pHLA over minipool of negative control pHLAs reading was recorded for the binder scFv G5-P1-E05 (scFv, V domains shown) VH: QVQLVQSGAEVKKPGASVKVSCKASGYTFTSYNMHWVRQAPGQGLEWMGWINPNSGGTNYAQKFQGRVTMTRDTSTSTVYMELSSLRSEDTAVYYCARDVMDVWGQGTTVTVSS VL: DIQMTQSPSSLSASVGDRVTITCRASQGISNYLNWYQQKPGKAPKLLIYYASSLQSGVPSRFSGSGSGTDFTLTISSLQPEDFATYYCQQTYMMPYTFGQGTKVEIK ?
≥ 3 fold
